Where do the numbers come from? From patent US12410187B2.

Consider the following compounds; for each one, report its efflux ratio at 0.1 uM.
system: MDR1 (Pgp) and BCRP; assay: Blood brain barrier penetrant assessment: efflux ratio in MDCK_MDR1_BCRP cells; format: in vitro ADME; conditions: human, MDCK cells doubly transfected with MDR1 (Pgp) and BCRP, ratio of 2 or less = potential for good BBB penetration, read-out: Hu MDCK-MDR1-BCRP (0.1 uM) Mean Efflux Ratio
Write no unit; give the number alone.

Query: Using the record for C#Cc1cc2c(c(F)c1-c1c(O)cccc1Cl)OC[C@H]1CN(C(=O)C=C)CCN1C2 (single isomer, unassigned) , report its efflux ratio at 0.1 uM.
Response: 0.8

Query: Record request: efflux ratio at 0.1 uM value, item C=CC(=O)N1CCN2Cc3cc(C#CC)c(-c4c(O)cccc4Cl)c(Cl)c3OC[C@H]2C1 (single isomer, unassigned)
Response: 0.9

Query: Tell me the measured efflux ratio at 0.1 uM of C=CC(=O)N1CCN2Cc3cc(F)c(-c4c(O)cccc4Br)c(F)c3OC[C@H]2C1 (single isomer, unassigned) , please.
Response: 0.8
